Assay: CHI Log D procedure
Type: physicochemical
Conditions: pH 7.4
assay.metric: CHI Log D

compound	assay.metric	reported.result
CC[C@H](C)[C@H](NC(=O)[C@H](CC(=O)O)NC(=O)[C@H](C)NC(C)=O)C(=O)N[C@]1(C)CCN(C)C(=O)OCC=CCCCCC[C@@](C)(C(=O)N[C@@H](Cc2ccccc2)C(=O)N[C@@H](Cc2c[nH]c3ccccc23)C(=O)N[C@@H](Cc2c[nH]cn2)C(N)=O)NC(=O)[C@H](CCC(N)=O)NC(=O)[C@H](Cc2ccccc2)NC(=O)[C@H](C)NC(=O)[C@H](C)NC(=O)[C@H](CCC(C)C)NC(=O)[C@H](CC(=O)O)NC1=O (single isomer, unassigned)	CHI Log D	1.686
CC(=O)N1CCC[C@]12CC=CCCCC1(CCCC=CCCCCCC[C@@](C)(C(=O)N[C@@H](Cc3ccccc3)C(=O)N[C@@H](Cc3csc4ccccc34)C(=O)N[C@@H](Cc3c[nH]cn3)C(N)=O)NC(=O)[C@H]([C@@H](C)O)NC(=O)[C@H](Cc3ccccc3)NC(=O)[C@H](C)NC(=O)[C@H](C)NC(=O)[C@H](CCC(=O)O)NC(=O)[C@H](CC(=O)O)NC1=O)NC(=O)[C@H](CC(C)C)NC(=O)[C@H](CC(=O)O)NC2=O (stereo partly drawn) [I-617]	CHI Log D	2.549
CC[C@@H]1NC(=O)[C@H](CC(=O)O)NC(=O)[C@]2(CC=CCCCC3(CCCC=CCCCCCC[C@@](C)(C(=O)N[C@@H](Cc4ccccc4)C(=O)N[C@@H](Cc4csc5ccccc45)C(=O)N[C@@H](Cc4c[nH]cn4)C(N)=O)NC(=O)[C@H](CC(N)=O)NC(=O)[C@H](Cc4ccccc4)NC(=O)[C@H](C)NC(=O)[C@H](C)NC(=O)[C@H](CC(=O)O)NC(=O)[C@H](CC(=O)O)NC3=O)NC1=O)CCCN2C(C)=O (stereo partly drawn) [I-574]	CHI Log D	2.16

====

pIC50 overview
Molecular target: beta-catenin/TCF4 engagement (Homo sapiens)
Construct: expressed in transfected cells; host or cells: HEK293
Sequence (P35222 whole entry): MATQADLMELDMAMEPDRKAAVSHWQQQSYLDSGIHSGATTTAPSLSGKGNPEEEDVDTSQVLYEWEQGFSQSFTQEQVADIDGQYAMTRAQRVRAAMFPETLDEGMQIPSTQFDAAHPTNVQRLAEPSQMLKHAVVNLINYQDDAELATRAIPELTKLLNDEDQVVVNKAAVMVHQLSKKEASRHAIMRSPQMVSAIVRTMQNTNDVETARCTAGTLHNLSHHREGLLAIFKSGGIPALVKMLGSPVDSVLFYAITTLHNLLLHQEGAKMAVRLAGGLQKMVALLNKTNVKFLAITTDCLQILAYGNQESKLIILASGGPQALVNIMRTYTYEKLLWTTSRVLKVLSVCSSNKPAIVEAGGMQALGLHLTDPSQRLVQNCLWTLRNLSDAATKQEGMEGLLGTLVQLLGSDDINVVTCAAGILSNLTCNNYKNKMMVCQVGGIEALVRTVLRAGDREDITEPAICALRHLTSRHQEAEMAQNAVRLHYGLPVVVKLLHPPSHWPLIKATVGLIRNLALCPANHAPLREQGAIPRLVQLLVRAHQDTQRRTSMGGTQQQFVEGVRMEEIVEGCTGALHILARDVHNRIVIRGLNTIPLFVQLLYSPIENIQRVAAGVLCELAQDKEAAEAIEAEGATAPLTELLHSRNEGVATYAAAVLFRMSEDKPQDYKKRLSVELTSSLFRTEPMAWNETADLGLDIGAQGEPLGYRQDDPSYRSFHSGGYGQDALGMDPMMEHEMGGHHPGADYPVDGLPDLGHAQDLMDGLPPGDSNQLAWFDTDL
Experiment: Nano-BRET target engagement assay (B-cat-Halo & TCF4-Luc in HEK293 cells)
Format: cell-based
Settings: absolute IC50; read-out: NanoBRET Abs IC50
pIC50: −log10 of the molar value.
assay.metric: pIC50

compound	reported.result
CC(=O)N1CCC[C@]12CC=CCCCC1(CCCC=CCCCOC(=O)N3CC[C@@](C(=O)N[C@@H](Cc4ccsc4)C(=O)N[C@@H](Cc4csc5ccccc45)C(=O)N[C@@H](CCC(N)=O)C(N)=O)(C3)NC(=O)[C@H](CC(N)=O)NC(=O)[C@H](Cc3ccccc3)NC(=O)[C@H](C)NC(=O)[C@H](C)NC(=O)[C@H](CCC(N)=O)NC(=O)[C@H](CC(N)=O)NC1=O)NC(=O)[C@H](CC(C)(C)C)NC(=O)[C@H](CC(=O)O)NC2=O (stereo partly drawn) [I-1566]	< 4.70
COCCOCCOCCOCCC(=O)NCCCC[C@@H]1NC(=O)[C@H](CCC(N)=O)NC(=O)[C@H](CC(=O)O)NC(=O)C2(CCCC=CCCCOC(=O)N3CC[C@@](C(=O)N[C@@H](Cc4ccccc4)C(=O)N[C@@H](Cc4csc5ccccc45)C(=O)N[C@@H](CC(=O)N4CCOCC4)C(N)=O)(C3)NC(=O)[C@H](CC(C)C)NC(=O)[C@H](Cc3ccccc3)NC(=O)[C@H](C)NC1=O)CCCC=CC[C@]1(CCCN1C(C)=O)C(=O)N[C@@H](CC(N)=O)C(=O)N[C@@H](CC1CCCCC1)C(=O)N2 (stereo partly drawn) [I-2526]	< 4.70
CC(=O)N1CCC[C@]12CC=CCCCC1(CCCC=CCCCOC(=O)N3CC[C@@](C(=O)N[C@@H](Cc4ccsc4)C(=O)N[C@@H](Cc4csc5ccccc45)C(=O)N[C@@H](CCC(N)=O)C(N)=O)(C3)NC(=O)[C@H](CC(C)C)NC(=O)[C@H](Cc3ccccc3)NC(=O)[C@H](C)NC(=O)[C@H](C)NC(=O)[C@H](CC(N)=O)NC(=O)[C@H](CC(N)=O)NC1=O)NC(=O)[C@H](CC(C)(C)C)NC(=O)[C@H](CC(=O)O)NC2=O (stereo partly drawn) [I-1557]	< 4.70
